assay: Metabolic stability in dog liver microsomes after 30 mins; format: ADME, Canis lupus familiaris, Microsome; conditions: read-out: Stability
REPORTED_PROPERTY: remaining at 0.5 h (%)

{"SMILES_CODE": "CCN(CC)C(=O)c1ccc(C2=CC3(CCNCC3)Oc3cccc(O)c32)cc1", "UNITS_LABEL": "%", "NUMERIC_READOUT": 98.7}

###

Entries and their inhibition
target: Mu-type opioid receptor (Homo sapiens, UniProt P35372); assay: Displacement of [3H]diprenorphine from human mu opioid receptor in CHO cells at 10 uM; type: cell-based
Sequence (P35372 whole entry): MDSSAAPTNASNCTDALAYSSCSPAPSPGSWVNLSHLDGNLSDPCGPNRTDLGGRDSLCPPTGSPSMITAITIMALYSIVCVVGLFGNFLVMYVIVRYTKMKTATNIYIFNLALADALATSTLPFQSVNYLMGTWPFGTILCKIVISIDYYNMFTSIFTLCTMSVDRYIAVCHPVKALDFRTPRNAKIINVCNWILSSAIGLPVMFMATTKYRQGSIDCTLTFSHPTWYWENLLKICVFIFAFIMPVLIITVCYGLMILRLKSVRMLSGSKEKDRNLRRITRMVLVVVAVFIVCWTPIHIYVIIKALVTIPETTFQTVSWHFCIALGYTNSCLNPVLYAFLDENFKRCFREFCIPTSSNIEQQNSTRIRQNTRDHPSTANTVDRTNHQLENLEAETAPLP
REPORTED_PROPERTY: inhibition (%)

{"COMPOUND": "O=C(O)c1ccc(C2=CC3(CCNCC3)Oc3ccccc32)cc1", "ASSAY_TARGET": "Mu-type opioid receptor (Homo sapiens, UniProt P35372)", "REPORTED_PROPERTY": "inhibition", "NUMERIC_READOUT": 13}
{"COMPOUND": "CCN(CC)C(=O)c1cccc(C2=CC3(CCNCC3)Oc3ccccc32)c1", "ASSAY_TARGET": "Mu-type opioid receptor (Homo sapiens, UniProt P35372)", "REPORTED_PROPERTY": "inhibition", "NUMERIC_READOUT": 12}
{"COMPOUND": "CCN(CC)C(=O)c1ccc(C2=CC3(CCNCC3)Oc3cc(O)ccc32)cc1", "ASSAY_TARGET": "Mu-type opioid receptor (Homo sapiens, UniProt P35372)", "REPORTED_PROPERTY": "inhibition", "NUMERIC_READOUT": 35}
{"COMPOUND": "FC(F)(F)c1ccc(C2=CC3(CCNCC3)Oc3ccccc32)cc1", "ASSAY_TARGET": "Mu-type opioid receptor (Homo sapiens, UniProt P35372)", "REPORTED_PROPERTY": "inhibition", "NUMERIC_READOUT": 42}
{"COMPOUND": "CCN(CC)C(=O)c1ccc(C2=CC3(CCNCC3)Oc3ccc(O)cc32)cc1", "ASSAY_TARGET": "Mu-type opioid receptor (Homo sapiens, UniProt P35372)", "REPORTED_PROPERTY": "inhibition", "NUMERIC_READOUT": 36}
{"COMPOUND": "CCN(CC)C(=O)c1ccc(C2=CC3(CCN(C)CC3)Oc3ccccc32)cc1", "ASSAY_TARGET": "Mu-type opioid receptor (Homo sapiens, UniProt P35372)", "REPORTED_PROPERTY": "inhibition", "NUMERIC_READOUT": 12}
{"COMPOUND": "CCN(CC)C(=O)c1ccc(C2=CC3(CCN(C(C)=O)CC3)Oc3ccccc32)cc1", "ASSAY_TARGET": "Mu-type opioid receptor (Homo sapiens, UniProt P35372)", "REPORTED_PROPERTY": "inhibition", "NUMERIC_READOUT": 14}
{"COMPOUND": "CCN(CC)C(=O)c1ccc(C2=CC3(CCNCC3)Oc3cccc(O)c32)cc1 [ADL-5859]", "ASSAY_TARGET": "Mu-type opioid receptor (Homo sapiens, UniProt P35372)", "REPORTED_PROPERTY": "inhibition", "NUMERIC_READOUT": 32}
{"COMPOUND": "CCN1CCC2(C=C(c3ccc(C(=O)N(CC)CC)cc3)c3ccccc3O2)CC1", "ASSAY_TARGET": "Mu-type opioid receptor (Homo sapiens, UniProt P35372)", "REPORTED_PROPERTY": "inhibition", "NUMERIC_READOUT": 13}
{"COMPOUND": "COC(=O)c1ccc(C2=CC3(CCNCC3)Oc3ccccc32)cc1", "ASSAY_TARGET": "Mu-type opioid receptor (Homo sapiens, UniProt P35372)", "REPORTED_PROPERTY": "inhibition", "NUMERIC_READOUT": 54}
{"COMPOUND": "Oc1ccc(C2=CC3(CCNCC3)Oc3ccccc32)cc1", "ASSAY_TARGET": "Mu-type opioid receptor (Homo sapiens, UniProt P35372)", "REPORTED_PROPERTY": "inhibition", "NUMERIC_READOUT": 54}
{"COMPOUND": "COc1ccc(C2=CC3(CCNCC3)Oc3ccccc32)cc1", "ASSAY_TARGET": "Mu-type opioid receptor (Homo sapiens, UniProt P35372)", "REPORTED_PROPERTY": "inhibition", "NUMERIC_READOUT": 42}

The origin of these recorded values is ChEMBL document CHEMBL1140111.
